Test: Transactivation of VDR in human Macrophage-like cell assessed as cell differentiation measured after 4 days by NBT dye-based assay
pEC50: −log10 of the molar value.
Measured attribute: pEC50

{"Substance smiles": "C[C@H](CCC(=O)O)[C@H]1CC[C@H]2[C@@H]3CC[C@@H]4C[C@H](OS(C)(=O)=O)CC[C@]4(C)[C@H]3CC[C@]12C", "Measured result": 5.92}

Values from BindingDB's records for doi:10.1016/j.bmc.2019.07.003
